test system: MCF-7 cells; assay: MCF-7 GI50 determination (crystal violet growth inhibition); assay type: cell-based, human; conditions: Homo sapiens, MCF7, 96 h, read-out: MCF-7 Cells GI50 (nM)
Readout label: GI50 (nM)

# Compound, Observed measurement
rows = [
    ("CC[C@]1(O)C[C@H]2CN(CCc3c([nH]c4cc(I)c(C)cc34)[C@@](C(=O)OC)(c3cc4c(cc3OC)N(C=O)[C@H]3[C@@](O)(C(=O)OC)[C@H](OC(C)=O)[C@]5(CC)C=CCN6CC[C@]43[C@@H]65)C2)C1 [Example 92, 13′-iodo-12′-methyl vincristine]", 30),
    ("CC[C@]1(O)C[C@H]2CN(CCc3c([nH]c4ccc(SCCCCO)cc34)[C@@](C(=O)OC)(c3cc4c(cc3OC)N(C)[C@H]3[C@@](O)(C(=O)OC)[C@H](OC(C)=O)[C@]5(CC)C=CCN6CC[C@]43[C@@H]65)C2)C1 [Example 32, 12′-(4-hydroxybutylsulfanyl)vinblastine]", 30),
    ("CC[C@]1(O)C[C@H]2CN(CCc3c([nH]c4ccc(-c5ccc(OC)cc5)cc34)[C@@](C(=O)OC)(c3cc4c(cc3OC)N(C=O)[C@H]3[C@@](O)(C(=O)OC)[C@H](OC(C)=O)[C@]5(CC)C=CCN6CC[C@]43[C@@H]65)C2)C1 [Example 7, 12′-(4-methoxyphenyl) vincristine]", 100),
    ("CC[C@]1(O)C[C@H]2CN(CCc3c([nH]c4ccc(SCC(=O)NC)cc34)[C@@](C(=O)OC)(c3cc4c(cc3OC)N(C)[C@H]3[C@@](O)(C(=O)OC)[C@H](OC(C)=O)[C@]5(CC)C=CCN6CC[C@]43[C@@H]65)C2)C1 [Example 46]", 500),
    ("CC[C@]1(O)C[C@H]2CN(CCc3c([nH]c4ccc(SSC(C)C)cc34)[C@@](C(=O)OC)(c3cc4c(cc3OC)N(C)[C@H]3[C@@](O)(C(=O)OC)[C@H](OC(C)=O)[C@]5(CC)C=CCN6CC[C@]43[C@@H]65)C2)C1 [Example 58, 12′-(isopropyldisulfanyl) vinblastine]", 100),
    ("CCCCCC(=O)c1ccc2[nH]c3c(c2c1)CCN1C[C@H](C[C@@](O)(CC)C1)C[C@]3(C(=O)OC)c1cc2c(cc1OC)N(C=O)[C@H]1[C@@](O)(C(=O)OC)[C@H](OC(C)=O)[C@]3(CC)C=CCN4CC[C@]21[C@@H]43 [Example 72, 12′-hexanoylvincristine]", 50),
    ("CC[C@]1(O)C[C@H]2CN(CCc3c([nH]c4ccc(Nc5ccc(OC)cc5)cc34)[C@@](C(=O)OC)(c3cc4c(cc3OC)N(C)[C@H]3[C@@](O)(C(=O)OC)[C@H](OC(C)=O)[C@]5(CC)C=CCN6CC[C@]43[C@@H]65)C2)C1 [Example 83, 12′-(4-methoxyphenylamino)vinblastine]", 500),
]

* * *

system: MCF-7 cells; experiment: MCF-7 GI50 determination (crystal violet growth inhibition); assay type: cell-based, human; details: Homo sapiens, MCF7, 96 h, read-out: MCF-7 Cells GI50 (nM)
Readout label: GI50 (nM)

# Compound, Reading unit, Observed measurement
records = [
    ("CC[C@]1(O)C[C@H]2CN(CCc3c([nH]c4ccc(C#CC(C)C)cc34)[C@@](C(=O)OC)(c3cc4c(cc3OC)N(C=O)[C@H]3[C@@](O)(C(=O)OC)[C@H](OC(C)=O)[C@]5(CC)C=CCN6CC[C@]43[C@@H]65)C2)C1 [Example 21, 12′-(3-methylbutynyl) vincristine]", "nM", 300),
    ("CC[C@]1(O)C[C@H]2CN(CCc3c([nH]c4cc(C)c(C)cc34)[C@@](C(=O)OC)(c3cc4c(cc3OC)N(C=O)[C@H]3[C@@](O)(C(=O)OC)[C@H](OC(C)=O)[C@]5(CC)C=CCN6CC[C@]43[C@@H]65)C2)C1 [Example 93, 12′,13′-dimethyl vincristine]", "nM", 30),
    ("CC[C@]1(O)C[C@H]2CN(CCc3c([nH]c4ccc(C#CCN(C)C)cc34)[C@@](C(=O)OC)(c3cc4c(cc3OC)N(C)[C@H]3[C@@](O)(C(=O)OC)[C@H](OC(C)=O)[C@]5(CC)C=CCN6CC[C@]43[C@@H]65)C2)C1 [Example 24]", "nM", 400),
    ("CC[C@]1(O)C[C@H]2CN(CCc3c([nH]c4ccc(SCc5ccccc5F)cc34)[C@@](C(=O)OC)(c3cc4c(cc3OC)N(C=O)[C@H]3[C@@](O)(C(=O)OC)[C@H](OC(C)=O)[C@]5(CC)C=CCN6CC[C@]43[C@@H]65)C2)C1 [Example 38]", "nM", 200),
]

* * *

Tested on: MCF-7 cells
Assay: MCF-7 GI50 determination (crystal violet growth inhibition)
Format: cell-based, human
Details: Homo sapiens, MCF7, 96 h, read-out: MCF-7 Cells GI50 (nM)
Procedure: Growth inhibition (GI50) values were measured on the human breast carcinoma line, MCF-7. MCF-7 cells were plated at 2×10^4 cells/well in 96 well plates and grown for 24 hours in drug free media. On day 2, test compounds were added to the plates at 10-fold dilutions. […] The crystal violet was then solubilized by the addition of 10% acetic acid for 15 min and quantified by measuring absorbance at 570 nm on a Molecular Devices microplate reader. […]
In this section, each of the molecules is paired with its reported GI50.
Readout label: GI50 (nM)

# Molecule, Readout label, Observed measurement
data = [
    ("CC[C@]1(O)C[C@H]2CN(CCc3c([nH]c4ccc(-c5ccc(F)cc5)cc34)[C@@](C(=O)OC)(c3cc4c(cc3OC)N(C)[C@H]3[C@@](O)(C(=O)OC)[C@H](OC(C)=O)[C@]5(CC)C=CCN6CC[C@]43[C@@H]65)C2)C1 [Example 10, 12′-(4-fluorophenyl) vinblastine]", "GI50", 95),
    ("CC[C@]1(O)C[C@H]2CN(CCc3c([nH]c4ccc(/C=C/C(=O)O)cc34)[C@@](C(=O)OC)(c3cc4c(cc3OC)N(C)[C@H]3[C@@](O)(C(=O)OC)[C@H](OC(C)=O)[C@]5(CC)C=CCN6CC[C@]43[C@@H]65)C2)C1 [Example 28, 12′-(2-carboxylvinyl) vinblastine]", "GI50", 300),
    ("CC[C@]1(O)C[C@H]2CN(CCc3c([nH]c4ccc(-c5ccccc5)cc34)[C@@](C(=O)OC)(c3cc4c(cc3OC)N(C=O)[C@H]3[C@@](O)(C(=O)OC)[C@H](OC(C)=O)[C@]5(CC)C=CCN6CC[C@]43[C@@H]65)C2)C1 [Example 5, 12′-phenylvincristine]", "GI50", 30),
    ("CC[C@]1(O)C[C@H]2CN(CCc3c([nH]c4ccc(/C=C/C#N)cc34)[C@@](C(=O)OC)(c3cc4c(cc3OC)N(C)[C@H]3[C@@](O)(C(=O)OC)[C@H](OC(C)=O)[C@]5(CC)C=CCN6CC[C@]43[C@@H]65)C2)C1 [Example 30, 12′-(2-cyanovinyl) vinblastine]", "GI50", 45),
]

* * *

tested on: MCF-7 cells; experiment: MCF-7 GI50 determination (crystal violet growth inhibition); assay type: cell-based, human; settings: Homo sapiens, MCF7, 96 h, read-out: MCF-7 Cells GI50 (nM)

# Compound, Measured on, GI50 (nM)
rows = [
    ("CC[C@]1(O)C[C@H]2CN(CCc3c([nH]c4ccc(-c5ccccc5)cc34)[C@@](C(=O)OC)(c3cc4c(cc3OC)N(C)[C@H]3[C@@](O)(C(=O)OC)[C@H](OC(C)=O)[C@]5(CC)C=CCN6CC[C@]43[C@@H]65)C2)C1", "MCF-7 cells", 300),
    ("CC[C@]1(O)C[C@H]2CN(CCc3c([nH]c4ccc(Nc5ccc(C(F)(F)F)cc5)cc34)[C@@](C(=O)OC)(c3cc4c(cc3OC)N(C)[C@H]3[C@@](O)(C(=O)OC)[C@H](OC(C)=O)[C@]5(CC)C=CCN6CC[C@]43[C@@H]65)C2)C1", "MCF-7 cells", 500),
    ("CC[C@]1(O)C[C@H]2CN(CCc3c([nH]c4ccc(Sc5cccc(O)c5)cc34)[C@@](C(=O)OC)(c3cc4c(cc3OC)N(C=O)[C@H]3[C@@](O)(C(=O)OC)[C@H](OC(C)=O)[C@]5(CC)C=CCN6CC[C@]43[C@@H]65)C2)C1", "MCF-7 cells", 50),
    ("CCC1=C[C@H]2CN(CCc3c([nH]c4ccc(Br)cc34)[C@@](C(=O)OC)(c3cc4c(cc3OC)N(C)[C@H]3[C@@](O)(C(=O)OC)[C@H](OC(C)=O)[C@]5(CC)C=CCN6CC[C@]43[C@@H]65)C2)C1 [Example 97, 12′-bromoanhydro vinblastine]", "MCF-7 cells", 50),
    ("CC[C@]1(O)C[C@H]2CN(CCc3c([nH]c4ccc(C(=O)OCC(Cl)(Cl)Cl)cc34)[C@@](C(=O)OC)(c3cc4c(cc3OC)N(C)[C@H]3[C@@](O)(C(=O)OC)[C@H](OC(C)=O)[C@]5(CC)C=CCN6CC[C@]43[C@@H]65)C2)C1", "MCF-7 cells", 200),
    ("CCCC(=O)/C=C/c1ccc2[nH]c3c(c2c1)CCN1C[C@H](C[C@@](O)(CC)C1)C[C@]3(C(=O)OC)c1cc2c(cc1OC)N(C)[C@H]1[C@@](O)(C(=O)OC)[C@H](OC(C)=O)[C@]3(CC)C=CCN4CC[C@]21[C@@H]43", "MCF-7 cells", 515),
    ("CC[C@]1(O)C[C@H]2CN(CCc3c([nH]c4ccc(-c5cccnc5)cc34)[C@@](C(=O)OC)(c3cc4c(cc3OC)N(C)[C@H]3[C@@](O)(C(=O)OC)[C@H](OC(C)=O)[C@]5(CC)C=CCN6CC[C@]43[C@@H]65)C2)C1", "MCF-7 cells", 600),
]
